Hey, just so you know, these numbers are from the OPERA property sets (Mansouri et al. 2018).

Hi there, I'd appreciate the recorded logP for every entry that follows.
Give bare numbers.

The cases that follow already have their logP on record.
// "O=c1nc(/N=C/N2CCCCC2)ccn1[C@H]1C[C@H](F)[C@@H](CO)O1" : logP value = 0.36

// O=c1nc(N=CN2CCOCC2)ccn1C1CC(F)C(CO)O1 (centres undefined) : logP value = -0.68

// CCN(C=Nc1ccn(C2CC(F)C(CO)O2)c(=O)n1)CC (centres undefined) : logP value = 0.23

Shifting focus to the compound that follows.
// "CCN(/C=N/c1ccn([C@H]2CC[C@@H](CO)O2)c(=O)n1)CC" : logP value = -0.06

---

Lab note: class by logP, see lower band = under -0.6, central band = from -0.6 up to 0.7, upper band = 0.7 and over

Q: Which logP category applies to "O=c1nc(/N=C/N2CCCCC2)ccn1[C@H]1CC[C@@H](CO)O1" here?
Ans: central band

Next:
Q: Which logP category applies to O=c1nc(N=CN2CCCC2)ccn1C1CCC(CO)O1 (stereo unspecified) here?
Ans: central band

Q: Which logP category applies to "Nc1ccn([C@H]2C[C@H](F)[C@@H](CO)O2)c(=O)n1" here?
Ans: lower band

Q: Which logP category applies to CN(C)C=Nc1ccn(C2CCC(CO)O2)c(=O)n1 (stereo unspecified) here?
Ans: lower band

Q: Which logP category applies to CC(C)N(C=Nc1ccn(C2CC(F)C(CO)O2)c(=O)n1)C(C)C (stereo unspecified) here?
Ans: upper band

Q: Which logP category applies to "CCCN(/C=N/c1ccn([C@H]2CC[C@@H](CO)O2)c(=O)n1)CCC" here?
Ans: upper band

Q: Which logP category applies to O=c1nc(N=CN2CCOCC2)ccn1C1CCC(CO)O1 (stereo unspecified) here?
Ans: lower band

Q: Which logP category applies to CCCN(C=Nc1ccn(C2CC(F)C(CO)O2)c(=O)n1)CCC (stereo unspecified) here?
Ans: upper band

Q: Which logP category applies to CN(C)C=Nc1ccn(C2CC(F)C(CO)O2)c(=O)n1 (stereo unspecified) here?
Ans: lower band

Q: Which logP category applies to O=c1nc(N=CN2CCCC2)ccn1C1CC(F)C(CO)O1 (stereo unspecified) here?
Ans: central band
